Values compiled from patent US20210324054A1.

- targetDesc: DN-IV quality control recombinant protein (produced by the company) (dengue virus)
- testDescription: BLI, antibody on AMC sensor
What koff was measured for each of the following?
Please state the figure in s⁻¹; there is no need to write the unit.

Prompt: # get_value(readout='koff', item= Mutation 1-15 (antibody, V domains shown) VH: EVQLQQPGPELVKPGASVKMSCKASGYTFTSTVIHWVRQKPGQGLEWIGYMNPYNDGIKYNEKFIGKAILTSDKSSSTAYMQLSSLTSEDSAVYYCTKEGLFYVFDYWGQGTSVTVSS VL: QIVLTQSPAIMSASPGEKVTMTCSATSSISYMHWYQQKSGTSPKRWIYDSSKLASGVPVRFSGSGSGTSYSLTISSMEAEDAATYFCQYWRSDLPTFGAGTKLELKR )
Completion: 0.00017

Prompt: Can you share its koff? I mean this binder: Mutation 1-52 (antibody, V domains shown) VH: EVQLQQPGPELVKPGASVKMSCKASGYTFTSSVIHWVRQKPGQGLEWIGYMNPYNDGLKYNEKFIGKAILTSDKSSSTAYMQLSSLTSEDSAVYYCTKEGLFYVFDYWGQGTSVTVSS VL: QIVLTQSPAIMSASPGEKVTMTCSATSSLSYMHWYQQKSGTSPKRWIYDSSKLASGVPVRFSGSGSGTSYSLTISSMEAEDAATYFCQQWRSDLPTFGAGTKLELKR
Completion: 0.000124
